Target: human liver glycerol 3-phosphate dehydrogenase (hlGPDH) (Homo sapiens)
Sequence (P21695 1-349): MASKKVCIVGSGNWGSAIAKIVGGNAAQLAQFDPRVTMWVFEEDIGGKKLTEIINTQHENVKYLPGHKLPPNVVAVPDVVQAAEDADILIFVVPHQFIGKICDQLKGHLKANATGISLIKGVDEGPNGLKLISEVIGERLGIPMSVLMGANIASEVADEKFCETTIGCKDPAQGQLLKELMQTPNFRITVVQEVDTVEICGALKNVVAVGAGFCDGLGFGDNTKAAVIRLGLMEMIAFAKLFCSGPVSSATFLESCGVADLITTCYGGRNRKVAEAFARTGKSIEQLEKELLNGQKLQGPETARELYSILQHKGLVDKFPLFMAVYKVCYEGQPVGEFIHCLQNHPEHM
Experiment: Oxydianion activation of hlGPDH-catalyzed reduction of GA by NADH
Format: biochemical
Conditions: read-out: KX, dissociation constant for release of the oxydianion from the binary or ternary enzyme complex; pH 7.5 (10 mM TEA), 25 °C, 0.2 mM NADH, I = 0.12 (NaCl)
reported_property: pKd
Remember, pKd is on a log scale: it is -log10 of the molar concentration.

Which pKd is listed for O=[PH](O)O ?
1.15

---

biological target: human liver glycerol 3-phosphate dehydrogenase (hlGPDH) (Homo sapiens, UniProt P21695); experiment: Oxydianion activation of hlGPDH-catalyzed reduction of GA by NADH; type: biochemical; conditions: read-out: Kd of truncated substrate, substrate pieces; GA + HPO3^2–
reported_property: pKd
Remember, pKd is on a log scale: it is -log10 of the molar concentration.

# get_value(readout= pKd, system= human liver glycerol 3-phosphate dehydrogenase (hlGPDH) (Homo sapiens, UniProt P21695)) for O=CCO
2.30

---

Target: yeast triosephosphate isomerase (ScTIM) (Saccharomyces cerevisiae, UniProt P00942)
Sequence (P00942 1-248): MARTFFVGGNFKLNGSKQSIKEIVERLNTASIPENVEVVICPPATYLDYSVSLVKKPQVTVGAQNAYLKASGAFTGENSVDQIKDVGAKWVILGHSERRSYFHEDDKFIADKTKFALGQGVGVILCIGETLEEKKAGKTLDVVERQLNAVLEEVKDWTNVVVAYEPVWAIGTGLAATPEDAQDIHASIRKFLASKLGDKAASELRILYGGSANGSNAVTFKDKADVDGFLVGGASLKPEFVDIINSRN
reported_property: Kd (mM)
Your answer is read as mM, so omit the unit and give the number.

> print(dat)
     molecule                               system.name  reported.property  value.unit  readout.number
1  O=[PH](O)O  yeast triosephosphate isomerase (ScTIM) (Saccharomyces cerevisiae, UniProt P00942)                 Kd          mM              18

# get_value(readout= Kd, system= yeast triosephosphate isomerase (ScTIM) (Saccharomyces cerevisiae, UniProt P00942)) for O=S(O)(O)=S [S2O3^2–, thiosulfate dianion]
7

---

target: human liver glycerol 3-phosphate dehydrogenase (hlGPDH) (Homo sapiens, UniProt P21695); experiment: Oxydianion activation of hlGPDH-catalyzed reduction of GA by NADH; format: biochemical; conditions: pH 7.5 (10 mM TEA), 25 °C, 0.2 mM NADH, I = 0.12 (NaCl)
Structures can show the parent of a compound that is named as a salt.
Below: a set of entries, each annotated with reported (kcat)E·X, first-order rate constant for turnover of the Michaelis complex.
Your answer is read as s^–1, so omit the unit and give the number.

Study these solved cases before continuing.
> print(dat)
                                   compound  readout.number
1          O=P(O)(O)O [HOPO3^2–, phosphate]           0.032
2  O=S(O)(O)=S [S2O3^2–, thiosulfate dianion]          0.0190
3             O=S(=O)(O)O [SO4^2–, sulfate]           0.360

Which (kcat)E·X, first-order rate constant for turnover of the Michaelis complex is listed for O=[PH](O)O ?
5.5
